Data credit: patent US12016852B2

pIC50: −log10 of the molar value.
Listed here: compounds with reported pIC50 for Human O-GlcNAcase (His-Tagged hOGA) (Homo sapiens).

Query: // pIC50 lookup, key: c1cnn(-c2ccc(CN3CCCC3c3ccc4c(c3)OCCO4)cc2)c1 (single isomer, unassigned)
Result: 6.70 to 7.30

Query: Next compound: Cc1cc(CN2CCCC2c2ccc3c(c2)OCCO3)ccc1-c1cccnc1C (racemic)
Result: 6.00 to 6.70

Query: Next record, please: CC(=O)N1CCN(c2ccc(CN3CCCC3c3ccc4c(c3)OCCO4)cc2)CC1 (racemic)
Result: 6.00 to 6.70

Query: // next record CS(=O)(=O)CCOc1ccc(CN2CCCC2c2ccc3c(c2)OCCO3)cc1 (racemic)
Result: 5.00 to 6.00

Query: # iterate: Cn1cc(-c2ccc(CN3CCCC3c3ccc4c(c3)OCCO4)nc2)cn1 (single isomer, unassigned) [Example 18]
Result: 5.00 to 6.00

Query: Follow-up item: Cc1cc(-c2ccc(CN3CCCC3c3ccc4c(c3)OCCO4)cn2)ccn1 (racemic)
Result: 6.00 to 6.70

Query: Same question, c1cnc2ccc(CN3CCCC3c3ccc4c(c3)OCCO4)cc2c1 (single isomer, unassigned) this time
Result: 6.70 to 7.30

Query: // same read-out, input: N#Cc1cnc(-c2ccc(CN3CCCC3c3ccc4c(c3)OCCO4)cc2)s1 (racemic)
Result: 6.70 to 7.30

Query: Proceed to O=C1CSCCN1c1ccc(CN2CCCC2c2ccc3c(c2)OCCO3)cc1 (single isomer, unassigned)
Result: 6.00 to 6.70

Query: Similarly, Cn1ncc2cc(CN3CCCC3c3ccc4c(c3)OCCO4)ccc21 (racemic) ?
Result: 6.00 to 6.70

Query: Moving on to the next compound: CS(=O)(=O)c1cncc(-c2ccc(CN3CCCC3c3ccc4c(c3)OCCO4)cc2)c1 (racemic)
Result: 6.70 to 7.30
